measurement.description: AUC (0 to infinity) in tissue cage fluid of Wistar rat infected with methicillin-resistant Staphylococcus aureus HUSA 304 at 70 mg/kg/day, ip
Assay type: ADME, organism-based
Set-up: dose 70 mg/kg/day, time infinity, route intraperitoneal
endpoint.name: AUC(0-inf) (µg·h/mL)
Give the number; µg·h/mL is assumed, so skip it.

Answer with reported AUC(0-inf) of CCCCCCCCCC(=O)N[C@@H](Cc1c[nH]c2ccccc12)C(=O)N[C@H](CC(N)=O)C(=O)N[C@@H](CC(=O)O)C(=O)N[C@@H]1C(=O)NCC(=O)N[C@@H](CCCN)C(=O)N[C@@H](CC(=O)O)C(=O)N[C@H](C)C(=O)N[C@@H](CC(=O)O)C(=O)NCC(=O)N[C@H](CO)C(=O)N[C@@H]([C@H](C)CC(=O)O)C(=O)N[C@@H](CC(=O)c2ccccc2N)C(=O)O[C@@H]1C
953
